Values compiled from ChEMBL document CHEMBL2218924.

# Target or test system: cGMP-dependent protein kinase 1 (Homo sapiens) (UniProt Q13976)
# Sequence (Q13976 whole entry): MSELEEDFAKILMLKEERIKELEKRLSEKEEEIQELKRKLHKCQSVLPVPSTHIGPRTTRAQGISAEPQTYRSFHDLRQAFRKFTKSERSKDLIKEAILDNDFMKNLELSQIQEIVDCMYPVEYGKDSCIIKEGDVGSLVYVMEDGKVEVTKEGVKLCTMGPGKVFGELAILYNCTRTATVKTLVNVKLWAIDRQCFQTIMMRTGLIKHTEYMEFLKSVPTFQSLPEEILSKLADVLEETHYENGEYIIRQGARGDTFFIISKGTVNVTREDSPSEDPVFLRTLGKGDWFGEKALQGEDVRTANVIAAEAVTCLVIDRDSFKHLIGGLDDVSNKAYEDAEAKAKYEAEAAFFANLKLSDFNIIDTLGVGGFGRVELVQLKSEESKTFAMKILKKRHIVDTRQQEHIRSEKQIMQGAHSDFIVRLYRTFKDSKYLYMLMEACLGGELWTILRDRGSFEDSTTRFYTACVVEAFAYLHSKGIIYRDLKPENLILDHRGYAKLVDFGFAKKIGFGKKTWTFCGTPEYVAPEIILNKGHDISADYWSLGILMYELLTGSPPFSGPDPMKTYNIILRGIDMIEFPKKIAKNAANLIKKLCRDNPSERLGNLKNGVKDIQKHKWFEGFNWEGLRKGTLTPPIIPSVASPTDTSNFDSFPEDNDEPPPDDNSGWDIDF
# Experimental context: at 1 µM
Reported residual activity is given for each of the following molecules.
Supply the numeric figure in %, leaving out any unit text.

Below, 2 molecules whose answers are already recorded.
CCOc1cc2ncnc(Nc3cccc(Br)c3)c2cc1OCC: 108
O=C1NC(=O)c2cc(Nc3ccc(F)cc3)c(Nc3ccc(F)cc3)cc21: 98

Report residual activity for `COc1cccc(-c2cc(=O)c3ccccc3o2)c1N` please.
95

Report residual activity for `Nc1n[nH]c2nnc(-c3c(-c4ccccc4)nn4ccccc34)cc12` please.
95

Report residual activity for `Oc1ccc(Nc2nc(-c3ccc(Cl)cc3)cs2)cc1` please.
100

Report residual activity for `NC(=O)c1ccc2[nH]c(-c3ccc(Oc4ccc(Cl)cc4)cc3)nc2c1` please.
99

###

# Target or test system: Ephrin type-A receptor 1 (Homo sapiens) (UniProt P21709)
# Sequence (P21709 whole entry): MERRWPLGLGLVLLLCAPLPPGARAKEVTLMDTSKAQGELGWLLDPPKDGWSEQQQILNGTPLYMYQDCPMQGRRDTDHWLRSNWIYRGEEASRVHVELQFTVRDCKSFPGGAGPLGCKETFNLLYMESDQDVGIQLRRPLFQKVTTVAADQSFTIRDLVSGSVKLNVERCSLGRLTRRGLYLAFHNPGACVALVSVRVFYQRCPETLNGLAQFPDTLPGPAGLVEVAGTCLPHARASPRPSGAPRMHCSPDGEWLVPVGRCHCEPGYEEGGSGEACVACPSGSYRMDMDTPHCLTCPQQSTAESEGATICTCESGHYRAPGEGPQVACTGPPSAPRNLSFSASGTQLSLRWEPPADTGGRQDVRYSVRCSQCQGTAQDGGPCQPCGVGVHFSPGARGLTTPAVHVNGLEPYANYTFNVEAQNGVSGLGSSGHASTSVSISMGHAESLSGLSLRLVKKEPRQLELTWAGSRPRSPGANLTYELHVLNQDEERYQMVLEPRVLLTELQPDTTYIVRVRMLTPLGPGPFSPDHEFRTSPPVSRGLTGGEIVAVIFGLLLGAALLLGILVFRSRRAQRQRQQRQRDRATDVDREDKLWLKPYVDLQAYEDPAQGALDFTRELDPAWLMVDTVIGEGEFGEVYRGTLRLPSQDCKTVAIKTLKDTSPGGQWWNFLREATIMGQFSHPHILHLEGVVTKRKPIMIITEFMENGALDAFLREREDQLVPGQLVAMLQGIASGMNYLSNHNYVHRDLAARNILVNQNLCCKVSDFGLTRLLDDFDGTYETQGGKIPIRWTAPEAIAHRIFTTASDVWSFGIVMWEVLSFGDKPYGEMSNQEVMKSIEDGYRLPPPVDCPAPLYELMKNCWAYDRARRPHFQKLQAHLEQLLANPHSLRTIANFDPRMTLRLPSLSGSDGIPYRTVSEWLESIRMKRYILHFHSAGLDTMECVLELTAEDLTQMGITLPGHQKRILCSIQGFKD
# Experimental context: at 10 µM
Endpoint: residual activity
Your reply should be a number followed by the unit it is expressed in.

COc1cc2ncnc(N3CCN(C(=O)Nc4ccc(Oc5ccccc5)cc4)CC3)c2cc1OC: 76%
NC(=O)c1ccc2[nH]c(-c3ccc(Oc4ccc(Cl)cc4)cc3)nc2c1: 85%
CC[n+]1c(/C=C/N(C)c2ccccc2)n(-c2ccccc2)c2ccc(-c3nc4ccccc4s3)cc21: 100%
C[C@@H](N)[C@H]1CC[C@H](C(=O)Nc2ccncc2)CC1: 96%
O=C(Nc1cccc(Nc2nccc(Nc3cccc(C(F)(F)F)c3)n2)c1)C1CC1: 22%

Report residual activity for `c1ccc(-c2n[nH]c3c2oc2ccccc23)cc1` please.
99%

Report residual activity for `CN(C)CCCn1cc(C2=C(c3c[nH]c4ccccc34)C(=O)NC2=O)c2ccccc21` please.
37%

Report residual activity for `CO[C@H]1[C@@H](OC)C[C@H](C)[C@@H](OC)C2=CC(=O)C=C(NC(=O)/C(C)=C/C=C/[C@H](OC)[C@@H](OC(N)=O)/C(C)=C/[C@@H]1C)C2=O` please.
102%

###

# Target or test system: Proto-oncogene tyrosine-protein kinase ROS (Homo sapiens)
# Experimental context: at 10 µM
residual activity of 80% or higher: class 1. Under 80%: class 0.

Reference set (5 entries):
N#Cc1cnc2cnc(NCc3cccnc3)cc2c1Nc1ccc(F)c(Cl)c1: class 0
Cc1nc2cc3nc(-c4cccs4)cnc3cc2n1C: class 1
COc1ccc(CNc2nc(N(CCO)CCO)nc3c2ncn3C(C)C)cc1: class 1
Oc1ccc(-c2nc(-c3ccc(F)cc3)c(-c3ccncc3)[nH]2)cc1: class 1
CO[C@@H]1[C@H](N(C)C(=O)c2ccccc2)C[C@H]2O[C@]1(C)n1c3ccccc3c3c4c(c5c6ccccc6n2c5c31)C(=O)NC4: class 0

Hi team, for `CCC(=O)Nc1ccc2ncnc(Nc3cccc(Br)c3)c2c1` , is the recorded residual activity at or above 80%?
class 1

Hi team, for `Cc1nc(-c2ccccc2)c(-c2ccncc2)o1` , is the recorded residual activity at or above 80%?
class 1

Hi team, for `Nc1nc(Nc2ccc(S(N)(=O)=O)cc2)nn1C(=S)Nc1c(F)cccc1F` , is the recorded residual activity at or above 80%?
class 0

Hi team, for `C[C@@H](N)[C@H]1CC[C@H](C(=O)Nc2ccncc2)CC1` , is the recorded residual activity at or above 80%?
class 1

Hi team, for `Cc1cc(Nc2nc(-c3ccccc3)nc3ccccc23)n[nH]1` , is the recorded residual activity at or above 80%?
class 0

Hi team, for `COc1cc2ncnc(Nc3ccc(O)c(Br)c3)c2cc1OC` , is the recorded residual activity at or above 80%?
class 1

###

# Target or test system: Ribosomal protein S6 kinase alpha-4 (Homo sapiens) (UniProt O75676)
# Sequence (O75676 whole entry, looked up): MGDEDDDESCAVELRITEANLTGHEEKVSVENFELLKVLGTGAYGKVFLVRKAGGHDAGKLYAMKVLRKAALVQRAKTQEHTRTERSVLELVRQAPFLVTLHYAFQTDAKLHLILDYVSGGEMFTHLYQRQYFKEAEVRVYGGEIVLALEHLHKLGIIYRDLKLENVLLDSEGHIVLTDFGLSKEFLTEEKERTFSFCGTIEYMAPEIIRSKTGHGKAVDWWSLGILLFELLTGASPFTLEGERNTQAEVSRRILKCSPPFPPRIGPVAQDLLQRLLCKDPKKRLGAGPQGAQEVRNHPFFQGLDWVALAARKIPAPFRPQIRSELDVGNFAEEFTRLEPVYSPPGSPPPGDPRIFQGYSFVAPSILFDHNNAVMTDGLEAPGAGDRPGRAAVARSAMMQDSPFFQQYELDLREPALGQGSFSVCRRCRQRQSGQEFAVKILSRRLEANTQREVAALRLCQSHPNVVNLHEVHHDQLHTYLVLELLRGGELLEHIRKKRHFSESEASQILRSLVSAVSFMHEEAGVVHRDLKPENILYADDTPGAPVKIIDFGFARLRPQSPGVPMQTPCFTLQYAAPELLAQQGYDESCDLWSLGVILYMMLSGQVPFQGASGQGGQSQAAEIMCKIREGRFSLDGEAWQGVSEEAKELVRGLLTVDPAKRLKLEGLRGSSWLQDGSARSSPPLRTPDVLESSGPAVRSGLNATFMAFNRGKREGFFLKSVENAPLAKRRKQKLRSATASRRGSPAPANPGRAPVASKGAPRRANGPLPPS
# Experimental context: at 10 µM
Reported residual activity is given for each of the following compounds.
Your reply should be a number followed by the unit it is expressed in.

Below, 2 compounds whose answers are already recorded.
CC(C)n1cnc2/c(=N/c3cccc(Cl)c3)nc(NCCO)[nH]c21: 37%
C[C@@H](N)[C@H]1CC[C@H](C(=O)Nc2ccncc2)CC1: 58%

Turning to the following compound.
Report residual activity for `O=c1c2ccccc2[nH]c(=S)n1CCN1CCC(=C(c2ccc(F)cc2)c2ccc(F)cc2)CC1` please.
97%

###

# Target or test system: TGF-beta receptor type-1 (Homo sapiens) (UniProt P36897)
# Sequence (P36897 whole entry): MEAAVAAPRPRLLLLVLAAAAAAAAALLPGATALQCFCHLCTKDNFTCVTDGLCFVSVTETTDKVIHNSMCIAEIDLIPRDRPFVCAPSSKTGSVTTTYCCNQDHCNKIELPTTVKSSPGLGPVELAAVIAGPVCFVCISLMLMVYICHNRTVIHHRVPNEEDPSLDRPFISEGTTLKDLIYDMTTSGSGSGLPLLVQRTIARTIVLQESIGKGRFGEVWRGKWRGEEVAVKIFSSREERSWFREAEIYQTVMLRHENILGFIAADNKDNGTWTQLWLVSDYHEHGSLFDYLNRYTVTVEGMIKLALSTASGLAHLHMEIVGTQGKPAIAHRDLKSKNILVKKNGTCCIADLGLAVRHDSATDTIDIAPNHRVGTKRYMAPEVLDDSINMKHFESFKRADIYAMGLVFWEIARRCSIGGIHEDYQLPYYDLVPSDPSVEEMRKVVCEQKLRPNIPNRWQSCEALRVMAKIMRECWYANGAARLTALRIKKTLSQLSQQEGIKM
# Experimental context: at 10 µM
# Description: Millipore: Percentage of residual kinase activity of TGFBR1 at 10uM relative to control. Control inhibitor: Phosphoric acid* at 0.3uM. Buffer: 8 mM MOPS pH 7.0, 0.2 mM EDTA, 1 mM MnCl2
Endpoint: residual activity (%)
Supply the numeric figure in %, leaving out any unit text.

Report residual activity for `N#C/C(=C(\N)Sc1ccc(N)cc1)c1ccccc1C(F)(F)F` please.
95

Report residual activity for `Oc1ccc(-c2nc(-c3ccc(F)cc3)c(-c3ccncc3)[nH]2)cc1` please.
40

Report residual activity for `N#CC(C#N)=C(N)/C(C#N)=C/c1ccc(O)cc1` please.
91

Report residual activity for `Cn1cnc2cc3c(Nc4cccc(Br)c4)ncnc3cc21` please.
85

Report residual activity for `Oc1ccc(Nc2nc(-c3ccc(Cl)cc3)cs2)cc1` please.
100

###

# Target or test system: BDNF/NT-3 growth factors receptor (Homo sapiens) (UniProt Q16620)
# Sequence (Q16620 32-822 limits assumed): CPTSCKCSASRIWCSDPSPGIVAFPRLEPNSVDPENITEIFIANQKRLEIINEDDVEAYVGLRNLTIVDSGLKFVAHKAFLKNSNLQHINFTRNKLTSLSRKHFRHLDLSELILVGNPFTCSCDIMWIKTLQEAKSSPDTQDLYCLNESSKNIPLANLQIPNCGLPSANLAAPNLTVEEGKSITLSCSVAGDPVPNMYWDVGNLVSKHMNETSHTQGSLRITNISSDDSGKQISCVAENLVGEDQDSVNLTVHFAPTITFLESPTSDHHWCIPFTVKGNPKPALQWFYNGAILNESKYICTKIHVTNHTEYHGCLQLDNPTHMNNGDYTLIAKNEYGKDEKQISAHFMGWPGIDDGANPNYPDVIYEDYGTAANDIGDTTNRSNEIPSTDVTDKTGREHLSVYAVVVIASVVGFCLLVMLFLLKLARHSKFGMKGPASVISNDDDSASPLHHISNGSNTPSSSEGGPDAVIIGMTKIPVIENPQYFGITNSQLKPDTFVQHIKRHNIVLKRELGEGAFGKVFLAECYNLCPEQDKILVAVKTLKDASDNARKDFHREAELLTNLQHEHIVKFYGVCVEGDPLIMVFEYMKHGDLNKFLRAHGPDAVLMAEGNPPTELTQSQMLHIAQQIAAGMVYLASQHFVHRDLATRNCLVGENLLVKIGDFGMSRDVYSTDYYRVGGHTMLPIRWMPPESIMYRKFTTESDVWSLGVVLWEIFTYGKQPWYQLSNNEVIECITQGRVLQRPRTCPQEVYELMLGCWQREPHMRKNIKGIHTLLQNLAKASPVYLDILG
# Experimental context: at 1 µM
Endpoint: residual activity (%)
Supply the numeric figure in %, leaving out any unit text.

Below, 8 compounds whose answers are already recorded.
c1ccc2c(-c3ccncc3)c[nH]c2c1: 134
Cc1cc(Nc2nc(-c3ccccc3)nc3ccccc23)n[nH]1: 1
Ic1cccc(CSc2nnc(-c3ccncc3)o2)c1: 32
Nc1n[nH]c2nnc(-c3c(-c4ccccc4)nn4ccccc34)cc12: 94
COc1ccc(C(=O)Nc2sc3c(c2C(N)=O)CCCC3)cc1OC: 70
C[C@@H](N)[C@H]1CC[C@H](C(=O)Nc2ccncc2)CC1: 106
N#Cc1cnc2cnc(NCc3cccnc3)cc2c1Nc1ccc(F)c(Cl)c1: 3
O=c1cc(-c2cccc3c2Sc2ccccc2S3)oc(N2CCOCC2)c1: 75

Turning to the following compound.
Report residual activity for `Oc1c2ccccc2c2c3c(cccc13)N=N2` please.
32

###

# Target or test system: Casein kinase I isoform gamma-1 (Homo sapiens) (UniProt Q9HCP0)
# Sequence (Q9HCP0 whole entry, looked up, canonical isoform): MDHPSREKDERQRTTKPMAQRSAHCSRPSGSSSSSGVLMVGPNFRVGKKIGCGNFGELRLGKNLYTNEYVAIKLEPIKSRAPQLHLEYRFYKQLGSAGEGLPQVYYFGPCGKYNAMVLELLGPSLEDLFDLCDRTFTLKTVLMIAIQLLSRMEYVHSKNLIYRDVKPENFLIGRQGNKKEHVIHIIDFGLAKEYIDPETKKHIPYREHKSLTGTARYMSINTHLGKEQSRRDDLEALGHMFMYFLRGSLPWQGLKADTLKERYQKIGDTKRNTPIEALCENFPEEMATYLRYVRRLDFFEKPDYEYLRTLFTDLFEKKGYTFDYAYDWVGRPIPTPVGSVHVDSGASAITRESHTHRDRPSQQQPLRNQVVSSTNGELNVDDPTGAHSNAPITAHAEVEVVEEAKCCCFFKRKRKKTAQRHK
# Experimental context: at 1 µM
# Description: Millipore: Percentage of residual kinase activity of CSNK1G1 at 1uM relative to control. Control inhibitor: Phosphoric acid* at 0.3uM. Buffer: 8 mM MOPS pH 7.0, 0.2 mM EDTA
met if residual activity is below 90%. not met if not; exact matches included in not met.

Reference set (5 entries):
Nc1nc(Nc2ccc(S(N)(=O)=O)cc2)nn1C(=S)Nc1c(F)cccc1F: met
O=C1NC(=O)c2cc(Nc3ccc(F)cc3)c(Nc3ccc(F)cc3)cc21: met
Cc1cccc(-c2[nH]c(C(C)(C)C)nc2-c2ccc3c(c2)OCO3)n1: not met
Ic1cccc(CSc2nnc(-c3ccncc3)o2)c1: not met
O=C1c2ccccc2-[n+]2ccc3c([nH]c4ccccc43)c21: not met

Could you please tell me whether residual activity recorded for `Oc1c2ccccc2c2c3c(cccc13)N=N2` is less than 90%?
not met

Could you please tell me whether residual activity recorded for `c1ccc2c(-c3ccncc3)c[nH]c2c1` is less than 90%?
not met

Could you please tell me whether residual activity recorded for `N#C/C(=C(\N)Sc1ccc(N)cc1)c1ccccc1C(F)(F)F` is less than 90%?
not met

Could you please tell me whether residual activity recorded for `Oc1ccc(-c2nc(-c3ccc(F)cc3)c(-c3ccncc3)[nH]2)cc1` is less than 90%?
met

Could you please tell me whether residual activity recorded for `COc1ccc(CNc2nc(N(CCO)CCO)nc3c2ncn3C(C)C)cc1` is less than 90%?
met

Could you please tell me whether residual activity recorded for `O=[N+]([O-])c1ccc(-c2nc(-c3ccc(F)cc3)c(-c3ccncc3)[nH]2)cc1` is less than 90%?
met

Could you please tell me whether residual activity recorded for `CNc1cc2c(Nc3cccc(Br)c3)ncnc2cn1` is less than 90%?
not met

Could you please tell me whether residual activity recorded for `Cc1ccc(NC2=CC(=O)c3sc(C)nc3C2=O)cc1` is less than 90%?
not met

Could you please tell me whether residual activity recorded for `O=Nc1c(-c2c(O)[nH]c3ccccc23)[nH]c2ccccc12` is less than 90%?
met

Could you please tell me whether residual activity recorded for `O=C1Nc2cc(Br)ccc2/C1=C1/Nc2ccccc2/C1=N\O` is less than 90%?
met

###

# Target or test system: Tyrosine-protein kinase Fgr (Homo sapiens)
# Experimental context: at 10 µM
Fulfilled if residual activity is below 60%. Not fulfilled if not; exact matches included in Not fulfilled.

Could you please tell me whether residual activity recorded for `Cc1cc(Nc2nc(-c3ccccc3)nc3ccccc23)n[nH]1` is less than 60%?
Fulfilled

Could you please tell me whether residual activity recorded for `COc1cc2ncnc(N3CCN(C(=O)Nc4ccc(Oc5ccccc5)cc4)CC3)c2cc1OC` is less than 60%?
Not fulfilled

###

# Target or test system: Tyrosine-protein kinase Lck (Homo sapiens) (UniProt P06239)
# Sequence (P06239 2-509 limits assumed): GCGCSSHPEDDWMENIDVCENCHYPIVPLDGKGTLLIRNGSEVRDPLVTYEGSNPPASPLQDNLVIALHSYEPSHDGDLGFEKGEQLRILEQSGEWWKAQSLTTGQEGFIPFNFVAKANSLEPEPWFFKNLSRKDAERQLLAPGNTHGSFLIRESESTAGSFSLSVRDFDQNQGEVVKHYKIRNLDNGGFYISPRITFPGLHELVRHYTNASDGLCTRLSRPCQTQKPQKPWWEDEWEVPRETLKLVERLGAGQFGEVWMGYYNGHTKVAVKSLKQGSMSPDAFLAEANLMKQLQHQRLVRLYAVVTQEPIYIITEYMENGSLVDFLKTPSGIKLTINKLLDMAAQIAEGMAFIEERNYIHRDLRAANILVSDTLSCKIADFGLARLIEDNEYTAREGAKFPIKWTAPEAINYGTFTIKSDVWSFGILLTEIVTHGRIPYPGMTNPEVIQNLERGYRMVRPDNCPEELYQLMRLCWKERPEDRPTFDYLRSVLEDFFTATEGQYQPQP
# Experimental context: at 10 µM
Grouping by measured residual activity is done with the following cut points: group 1 (below 40%), group 2 (40% to below 80%), group 3 (80% or more)

COc1cccc(-c2cc(=O)c3ccccc3o2)c1N: group 3

Could you tell me which band `Oc1n[nH]c2nnc(-c3c(-c4ccccc4)nn4ccccc34)cc12` belongs to?
group 2

Could you tell me which band `CN(C)c1ccc(/C=C2\C(=O)Nc3ccccc32)cc1` belongs to?
group 2

Could you tell me which band `CCN(CC)CCCCN1c2ccccc2Oc2ccc(Cl)cc21` belongs to?
group 2

Could you tell me which band `COc1cc2ncnc(Nc3ccc(NC(=O)c4ccccc4)cc3)c2cc1OC` belongs to?
group 1

Could you tell me which band `COc1ccc(OC)c2c(=S)c3ccccc3[nH]c12` belongs to?
group 3

Could you tell me which band `Cc1ccc(S(=O)(=O)/C=C/C#N)cc1` belongs to?
group 3

Could you tell me which band `Cc1nc(-c2ccccc2)c(-c2ccncc2)o1` belongs to?
group 2

Could you tell me which band `CN(C)CCCn1cc(C2=C(c3c[nH]c4ccccc34)C(=O)NC2=O)c2ccccc21` belongs to?
group 2

Could you tell me which band `CO[C@H]1C[C@@H]2CC[C@@H](C)[C@@](O)(O2)C(=O)C(=O)N2CCCC[C@H]2C(=O)O[C@H]([C@H](C)C[C@@H]2CC[C@@H](O)[C@H](OC)C2)CC(=O)[C@H](C)/C=C(\C)[C@@H](O)[C@@H](OC)C(=O)[C@H](C)C[C@H](C)/C=C/C=C/C=C/1C` belongs to?
group 3

Could you tell me which band `c1ccc2c(-c3ccncc3)c[nH]c2c1` belongs to?
group 3

Could you tell me which band `Nc1ccc2ncnc(NCCc3ccc(Oc4ccccc4)cc3)c2c1` belongs to?
group 1

Could you tell me which band `Nc1nc(Nc2ccc(S(N)(=O)=O)cc2)nn1C(=S)Nc1c(F)cccc1F` belongs to?
group 1

Could you tell me which band O=C1Nc2ccccc2/C1=C1/Nc2ccccc2/C1=N\OCCC(O)CO (stereo not given) belongs to?
group 1

Could you tell me which band `O=C1NC(=O)c2cc(Nc3ccc(F)cc3)c(Nc3ccc(F)cc3)cc21` belongs to?
group 2

Could you tell me which band `Oc1ccc(-c2nc(-c3ccc(F)cc3)c(-c3ccncc3)[nH]2)cc1` belongs to?
group 1

Could you tell me which band `COc1ccc(S(=O)(=O)N(CCO)c2ccccc2CN(C)C/C=C/c2ccc(Cl)cc2)cc1` belongs to?
group 2

Could you tell me which band `CC[n+]1c(/C=C/N(C)c2ccccc2)n(-c2ccccc2)c2ccc(-c3nc4ccccc4s3)cc21` belongs to?
group 2

Could you tell me which band `Cc1cccc(-c2[nH]c(C(C)(C)C)nc2-c2ccc3c(c2)OCO3)n1` belongs to?
group 3

Could you tell me which band `COc1cc2ncnc(Nc3ccc(Oc4ccccc4)cc3)c2cc1OC` belongs to?
group 1
